This listing pairs compounds with measured Population Hoechst High Intensity Objects (%).
System: HEK-293T
experiment: Multiplex assay against HEK293T
Assay type: toxicity, cell-based
applied_conditions: human, 48 h, 10 µM, compound concentration 10 uM, replicate 1
endpoint: Population Hoechst High Intensity Objects (%)

{"compound": "CN(C)C(=O)N[C@H]1CC[C@H](CCN2CCN(c3cccc(Cl)c3Cl)CC2)CC1.Cl [CARIPRAZINE HYDROCHLORIDE]", "assayed_target": "HEK-293T", "unit_text": "%", "val": 15}
{"compound": "Cc1[nH]c(/C=C2\\C(=O)Nc3ccc(S(=O)(=O)N(C)c4cccc(Cl)c4)cc32)c(C)c1C(=O)N1CCN(C)CC1", "assayed_target": "HEK-293T", "unit_text": "%", "val": 15}
{"compound": "Cc1nc(-c2ccc(-c3ccc(C(=O)N4CCc5cc6c(cc54)C4(CCN(C)CC4)CO6)cc3)c(C)c2)no1 [SB-224289]", "assayed_target": "HEK-293T", "unit_text": "%", "val": 26}
{"compound": "Cn1cc(-c2[nH]c3cc(NC(=O)[C@H](N)C4CCCCC4)cc4c3c2C=NNC4=O)cn1", "assayed_target": "HEK-293T", "unit_text": "%", "val": 20}
{"compound": "COc1cccc([C@@H](C)NCCCc2ccccc2Cl)c1.Cl [TECALCET HYDROCHLORIDE]", "assayed_target": "HEK-293T", "unit_text": "%", "val": 10}
{"compound": "C[C@@]1(C(=O)Nc2ccc(F)nc2)CCCN1c1nc(Nc2cc(C3CC3)n[nH]2)c2cccn2n1 [BMS-754807]", "assayed_target": "HEK-293T", "unit_text": "%", "val": 15}
{"compound": "CCOCCn1cc(C(=O)Nc2ccc(-n3nc(-c4cccnc4)cc3C(F)(F)F)cn2)ccc1=O [BI 1935]", "assayed_target": "HEK-293T", "unit_text": "%", "val": 17}
{"compound": "CNc1nc(NCc2ccc(NS(C)(=O)=O)cc2Cl)cc(-c2ccccn2)n1", "assayed_target": "HEK-293T", "unit_text": "%", "val": 16}

###

Test system: HEK-293T
experiment: Incucyte cell viability with HEK293T; note: filed as whole numbers so only -1 and 0 and 1 occur
Type: toxicity, cell-based
applied_conditions: human, 6 h, 10 µM, compound concentration 10 uM, replicate number 1, timepoint 6 hours
endpoint: Growth Rate

{"compound": "CN1CCN(c2ccc(OC(F)(F)F)c(Nc3ncc4c(n3)-c3c(c(C(N)=O)nn3CCO)CC4)c2)CC1 [ONVANSERTIB]", "assayed_target": "HEK-293T", "endpoint": "Growth Rate", "val": 0}
{"compound": "Cc1cc(C)cc(-c2cnc3cc(Cl)c(-c4cccc(O)c4)cc3c2OCCCN)c1", "assayed_target": "HEK-293T", "endpoint": "Growth Rate", "val": 0}
{"compound": "COc1ncc(-c2ccc3nccc(-c4ccnnc4)c3c2)cc1NS(=O)(=O)c1ccc(F)cc1F [OMIPALISIB]", "assayed_target": "HEK-293T", "endpoint": "Growth Rate", "val": 0}
{"compound": "Cc1nc(-c2ccc(-c3ccc(C(=O)N4CCc5cc6c(cc54)C4(CCN(C)CC4)CO6)cc3)c(C)c2)no1 [SB-224289]", "assayed_target": "HEK-293T", "endpoint": "Growth Rate", "val": 0}
{"compound": "CN(c1ccnc(CNc2nc(Nc3ccc4c(c3)CC(=O)N4)ncc2C(F)(F)F)n1)S(C)(=O)=O [PF-00911705]", "assayed_target": "HEK-293T", "endpoint": "Growth Rate", "val": 0}
{"compound": "O=S(=O)(c1ccccc1)N(CC(F)(F)F)c1ccc(C(O)(C(F)(F)F)C(F)(F)F)cc1 [T091317]", "assayed_target": "HEK-293T", "endpoint": "Growth Rate", "val": 0}
{"compound": "CN([C@@H]1CCc2c(CC(=O)O)c3cc(S(C)(=O)=O)ccc3n2C1)S(=O)(=O)c1ccc(F)cc1 [CRTH2-negative-control]", "assayed_target": "HEK-293T", "endpoint": "Growth Rate", "val": 0}
{"compound": "Cc1nc(-c2cn3c(n2)-c2ccc(-c4cnn(C(C)(C)C(N)=O)c4)cc2OCC3)n(C(C)C)n1 [TASELISIB]", "assayed_target": "HEK-293T", "endpoint": "Growth Rate", "val": 0}
{"compound": "Cn1cc(-c2[nH]c3cc(NC(=O)[C@H](N)C4CCCCC4)cc4c3c2C=NNC4=O)cn1", "assayed_target": "HEK-293T", "endpoint": "Growth Rate", "val": 0}
{"compound": "COc1cc2nccc(Oc3ccc(NC(=O)Nc4cc(C)on4)c(Cl)c3)c2cc1OC.O", "assayed_target": "HEK-293T", "endpoint": "Growth Rate", "val": 0}
{"compound": "Cc1cccc([C@H](C)c2c[nH]cn2)c1C.Cl [DEXMEDETOMIDINE HYDROCHLORIDE]", "assayed_target": "HEK-293T", "endpoint": "Growth Rate", "val": 0}
{"compound": "CN1CCCC(n2nc(Cc3ccc(Cl)cc3)c3ccccc3c2=O)CC1.Cl (configuration not stated) [AZELASTINE HYDROCHLORIDE]", "assayed_target": "HEK-293T", "endpoint": "Growth Rate", "val": 0}
{"compound": "CNC(=NCCSCc1csc(N=C(N)N)n1)NC#N [TIOTIDINE]", "assayed_target": "HEK-293T", "endpoint": "Growth Rate", "val": 0}
{"compound": "CCCc1nc2c(C)cc(-c3nc4ccccc4n3C)cc2n1Cc1ccc(-c2ccccc2C(=O)O)cc1", "assayed_target": "HEK-293T", "endpoint": "Growth Rate", "val": 0}
{"compound": "OC1(c2ccc(Cl)cc2)CCN(Cc2c[nH]c3ccccc23)CC1", "assayed_target": "HEK-293T", "endpoint": "Growth Rate", "val": 0}
{"compound": "CN(C)C(=O)N[C@H]1CC[C@H](CCN2CCN(c3cccc(Cl)c3Cl)CC2)CC1.Cl [CARIPRAZINE HYDROCHLORIDE]", "assayed_target": "HEK-293T", "endpoint": "Growth Rate", "val": 0}
{"compound": "CC(C)(O)CNc1ncc(-c2ccnc(Nc3ccnc(Cl)c3)n2)c(CC2CC2)n1", "assayed_target": "HEK-293T", "endpoint": "Growth Rate", "val": 0}
